Every entry's value here was drawn from patent US7211577B2.

Test: Oral absorbability test on rats and/or mice
Type: in vivo
Conditions: orally administered to mice and/or rats, as in Experiment 3

[
  {
    "molecule": "Cc1cc(-c2cc(CN3CCN(C)CC3)c(=O)n(CCCc3ccc(Cl)cc3)n2)ccc1F.Cl.Cl [Example 247]",
    "Oral absorbability (FIGS. 2 to 6)": "good absorbability"
  },
  {
    "molecule": "COc1ccc(-c2cc(CN3CCN(CCO)CC3)c(=O)n(CC=Cc3ccc(Cl)cc3)n2)cc1F.Cl.Cl [Example 249]",
    "Oral absorbability (FIGS. 2 to 6)": "good absorbability"
  },
  {
    "molecule": "COc1ccc(-c2cc(CN(CCO)CCO)c(=O)n(CC3CC3)n2)cc1F.Cl [Example 23]",
    "Oral absorbability (FIGS. 2 to 6)": "good absorbability"
  },
  {
    "molecule": "COc1ccc(-c2cc(CN3CCN(C)CC3)c(=O)n(Cc3ccc(F)c(F)c3)n2)cc1F.Cl.Cl [Example 245]",
    "Oral absorbability (FIGS. 2 to 6)": "good absorbability"
  }
]
